- target-desc: JAK3 (Homo sapiens (Human), UniProt P52333)
- Sequence (P52333 whole entry): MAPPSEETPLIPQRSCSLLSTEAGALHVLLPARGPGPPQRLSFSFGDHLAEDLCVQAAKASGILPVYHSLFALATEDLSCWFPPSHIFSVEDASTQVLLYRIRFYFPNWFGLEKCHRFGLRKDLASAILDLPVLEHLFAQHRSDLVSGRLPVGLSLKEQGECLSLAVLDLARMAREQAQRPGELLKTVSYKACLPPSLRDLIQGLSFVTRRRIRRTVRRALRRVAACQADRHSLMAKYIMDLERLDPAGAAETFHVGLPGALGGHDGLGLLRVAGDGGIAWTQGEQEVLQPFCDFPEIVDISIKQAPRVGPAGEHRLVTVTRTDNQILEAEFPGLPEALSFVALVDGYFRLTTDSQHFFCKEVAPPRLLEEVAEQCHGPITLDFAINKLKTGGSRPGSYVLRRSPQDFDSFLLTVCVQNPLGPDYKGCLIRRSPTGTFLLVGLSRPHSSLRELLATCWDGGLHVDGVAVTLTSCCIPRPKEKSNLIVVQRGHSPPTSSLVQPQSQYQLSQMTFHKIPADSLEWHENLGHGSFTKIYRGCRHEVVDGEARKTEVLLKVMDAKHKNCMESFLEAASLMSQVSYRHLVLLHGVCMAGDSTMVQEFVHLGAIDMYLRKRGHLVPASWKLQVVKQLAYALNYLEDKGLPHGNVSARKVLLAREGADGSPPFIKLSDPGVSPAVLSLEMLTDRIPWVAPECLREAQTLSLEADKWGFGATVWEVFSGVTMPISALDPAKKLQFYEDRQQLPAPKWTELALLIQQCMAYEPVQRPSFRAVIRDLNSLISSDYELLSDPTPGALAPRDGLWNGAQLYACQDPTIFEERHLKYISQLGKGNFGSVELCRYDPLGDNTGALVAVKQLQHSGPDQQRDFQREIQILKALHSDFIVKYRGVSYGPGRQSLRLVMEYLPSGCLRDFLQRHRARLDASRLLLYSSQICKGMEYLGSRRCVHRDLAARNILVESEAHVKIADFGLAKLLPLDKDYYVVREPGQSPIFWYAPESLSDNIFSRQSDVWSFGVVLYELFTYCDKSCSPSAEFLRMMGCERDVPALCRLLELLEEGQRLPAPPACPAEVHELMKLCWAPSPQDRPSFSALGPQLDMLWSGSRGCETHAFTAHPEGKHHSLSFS
- assay-method-text: Enzyme assay (Assay Example^a 1), JAK3
- Format: biochemical
- test-settings: ATP 100 μM
Classify: fulfilled when IC50 is strictly less than 0.4 µM; not fulfilled when IC50 is not.

compound	category
c1cc2c(ncn3nnc(C4CCCCC4)c23)[nH]1 [compound 6]	fulfilled
Brc1ccc(CN2CCC(c3nnn4cnc5[nH]ccc5c34)CC2)s1 [compound 238]	fulfilled
O=C(CN[C@H]1CC[C@@H](c2nnn3cnc4[nH]ccc4c23)CC1)NCC(F)(F)F [384a]	not fulfilled
N#Cc1ccc(NC[C@H]2CC[C@H](c3nnn4cnc5[nH]ccc5c34)CC2)cc1C#N [compound 262]	not fulfilled
Fc1ccc(C2(NC[C@H]3CC[C@H](c4nnn5cnc6[nH]ccc6c45)CC3)CCC2)cc1 [compound 324]	not fulfilled
CC(C)(C)OC(=O)N[C@@H]1CCN(C[C@H]2CC[C@H](c3nnn4cnc5[nH]ccc5c34)CC2)C1 [compound 299]	not fulfilled
CC(=O)N[C@H]1CCN(C[C@H]2CC[C@H](c3nnn4cnc5[nH]ccc5c34)CC2)C1 [compound 319]	not fulfilled
CC(C)(C)OC(=O)N1CC(CC#N)(NC[C@H]2CC[C@H](c3nnn4cnc5[nH]ccc5c34)CC2)C1 [compound 428]	not fulfilled
COc1ccc(C(O)(CN[C@H]2CC[C@H](c3nnn4cnc5[nH]ccc5c34)CC2)C(F)(F)F)cc1OC (stereo partly drawn) [390b]	not fulfilled
N#CCc1ccc(NC[C@H]2CC[C@H](c3nnn4cnc5[nH]ccc5c34)CC2)cc1 [compound 264]	not fulfilled
IC[C@H]1CC[C@H](c2nnn3cnc4[nH]ccc4c23)CC1 [compound 367]	fulfilled
N#Cc1ccc(CCN[C@H]2CC[C@H](c3nnn4cnc5[nH]ccc5c34)CC2)cc1 [391b]	not fulfilled
CCNC[C@H]1CC[C@H](c2nnn3cnc4[nH]ccc4c23)CC1 [compound 330]	not fulfilled
O=C(C[C@H]1CC[C@@H](c2nnn3cnc4[nH]ccc4c23)CC1)NCC(F)(F)F [442a]	not fulfilled
CCOC(=O)CC1CCC(c2nnn3cnc4[nH]ccc4c23)CC1 (stereo not drawn) [compound 438]	fulfilled
OC[C@@H]1CCCN1C[C@H]1CC[C@H](c2nnn3cnc4[nH]ccc4c23)CC1 [compound 266]	not fulfilled
S=c1[nH]c(C2CCCCC2)c2c3cc[nH]c3ncn12 [compound 8]	not fulfilled
N#CCNC(=O)C[C@H]1CC[C@H](c2nnn3cnc4[nH]ccc4c23)CC1 [443b]	fulfilled
O=C(CN[C@H]1CC[C@H](c2nnn3cnc4[nH]ccc4c23)CC1)NCC(F)(F)F [384b]	not fulfilled
FC1(F)Oc2ccc(CN3CCC(c4nnn5cnc6[nH]ccc6c45)CC3)cc2O1 [compound 227]	fulfilled
N#Cc1ccc(CCN2CCC(c3nnn4cnc5[nH]ccc5c34)CC2)cc1 [compound 375]	not fulfilled
OC1CCN(C[C@H]2CC[C@H](c3nnn4cnc5[nH]ccc5c34)CC2)CC1 [compound 271]	not fulfilled
N#C[C@H]1CCN(C(=O)[C@H]2CC[C@H](c3nnn4cnc5[nH]ccc5c34)CC2)C1 [compound 357]	not fulfilled
CC(C)(C)OC(=O)N1CCC(CNC[C@H]2CC[C@H](c3nnn4cnc5[nH]ccc5c34)CC2)CC1 [compound 335]	not fulfilled
O=C(NC1CC1)[C@H]1CC[C@H](c2nnn3cnc4[nH]ccc4c23)CC1 [compound 359]	not fulfilled
OC1CN(C[C@H]2CC[C@H](c3nnn4cnc5[nH]ccc5c34)CC2)C1 [compound 257]	not fulfilled
CC(C)NC[C@H]1CC[C@H](c2nnn3cnc4[nH]ccc4c23)CC1 [compound 331]	not fulfilled
CC(C)(C)OC(=O)N1CC[C@H](NC[C@H]2CC[C@H](c3nnn4cnc5[nH]ccc5c34)CC2)C1 [compound 337]	not fulfilled
N#CC1CN(C[C@H]2CC[C@H](c3nnn4cnc5[nH]ccc5c34)CC2)C1 [compound 281]	fulfilled
c1cc2c(ncn3nnc(C4CCN(Cc5cocn5)CC4)c23)[nH]1 [compound 219]	not fulfilled
FC(F)(F)C(NC[C@H]1CC[C@H](c2nnn3cnc4[nH]ccc4c23)CC1)C(F)(F)F [compound 317]	not fulfilled
OCCN1CCN(C[C@H]2CC[C@H](c3nnn4cnc5[nH]ccc5c34)CC2)CC1 [compound 315]	not fulfilled

Every entry's value here was drawn from patent US9216999B2.
